Tested on: Danio rerio larvae (5 dpf)
Test: activity during period 15 (no stimuli), difference vs DMSO (percentage points (treated minus DMSO)); higher = more of the behaviour than the DMSO vehicle control
Details: 10 µM; exposure time: 3 h pre-incubation + 3 h imaging
Where a name gives a salt, the structure may show the parent alone.
measurementType: activity during period 15
One number for each entry.

O=C1CCc2ccc(OCCCCN3CCN(c4cccc(Cl)c4Cl)CC3)cc2N1 :: 4.18

Hello, I would appreciate it if you could give activity during period 15 for each entry below.
1. CCC(C)(C)C(=O)O[C@H]1C[C@@H](C)C=C2C=C[C@H](C)[C@H](CC[C@@H]3C[C@@H](O)CC(=O)O3)[C@H]21
2. CN1CC[C@@H](NC(=O)Nc2ccc(C#N)cc2)C[C@@H]1c1nc2ccccc2[nH]1
3. COC(=O)C1=C(C)NC(C)=C(C(=O)OC(C)C)C1c1cccc2nonc12 (stereo not given)
4. CCOc1nc2cccc(C(=O)O)c2n1Cc1ccc(-c2ccccc2-c2noc(=O)[nH]2)cc1
5. C[C@@H](O[C@H]1OCCN(Cc2n[nH]c(=O)[nH]2)[C@H]1c1ccc(F)cc1)c1cc(C(F)(F)F)cc(C(F)(F)F)c1 [Aprepitant]
6. CCCCNc1cc(C(=O)O)cc(S(N)(=O)=O)c1Oc1ccccc1 [Bumetanide]
7. CC(C)CN(C[C@@H](O)[C@H](Cc1ccccc1)NC(=O)O[C@H]1CO[C@H]2OCC[C@H]21)S(=O)(=O)c1ccc(N)cc1

1. -3.71
2. -0.815
3. -12.3
4. 3.86
5. -7.86
6. -2.8
7. 11.1

Hello, I would appreciate it if you could give activity during period 15 for each entry below.
1. CC(C)OC(=O)C(C)(C)Oc1ccc(C(=O)c2ccc(Cl)cc2)cc1 [Fenofibrate]
2. CCCCCOC(=O)Nc1nc(=O)n([C@@H]2O[C@H](C)[C@@H](O)[C@H]2O)cc1F
3. Cc1ccc(O)c([C@H](CCN(C(C)C)C(C)C)c2ccccc2)c1 [Tolterodine L-tartrate]
4. CC1CNc2c(cccc2S(=O)(=O)N[C@@H](CCCNC(=N)N)C(=O)N2CC[C@@H](C)C[C@@H]2C(=O)O)C1 (stereo not given in full)
5. Cc1nc(Nc2ncc(C(=O)Nc3c(C)cccc3Cl)s2)cc(N2CCN(CCO)CC2)n1

6.23
2.91
13.9
-2.33
-15.1

Hello, I would appreciate it if you could give activity during period 15 for each entry below.
1. COc1cccc2c1C(=O)c1c(O)c3c(c(O)c1C2=O)C[C@@](O)(C(=O)CO)C[C@@H]3O[C@H]1C[C@H](N)[C@H](O)[C@H](C)O1 [Doxorubicin hydrochloride]
2. CCCCc1nc(Cl)c(CO)n1Cc1ccc(-c2ccccc2-c2nnn[nH]2)cc1

1. -10.6
2. 3.67

====

Test system: Danio rerio larvae (5 dpf)
Test: optomotor response to fast red moving lines, difference vs DMSO (percentage points (treated minus DMSO)); higher = more of the behaviour than the DMSO vehicle control
Settings: 10 µM; exposure time: 3 h pre-incubation + 3 h imaging
Structures can show the parent of a compound that is named as a salt.
Classify as follows. Reported optomotor response greater than or equal to -1: TRUE. Reported optomotor response below: FALSE.

Worked set:
Cc1ccc(O)c([C@H](CCN(C(C)C)C(C)C)c2ccccc2)c1 [Tolterodine L-tartrate] :: TRUE
CN(C)CCC[C@@]1(c2ccc(F)cc2)OCc2cc(C#N)ccc21 [Escitalopram oxalate] :: FALSE
Nc1nc(NC2CC2)c2ncn([C@H]3C=C[C@@H](CO)C3)c2n1 [Abacavir hemisulfate] :: FALSE
C[C@H]1C[C@@H]2[C@H]([C@@H](O)C[C@@]3(C)[C@H]2CC[C@]3(O)C(=O)CO)[C@@]2(C)C=CC(=O)C=C12 :: FALSE
COc1ccc(Cl)cc1C(=O)NCCc1ccc(S(=O)(=O)NC(=O)NC2CCCCC2)cc1 [Glibenclamide] :: FALSE

Hi, just wondering whether C#C[C@]1(O)CC[C@H]2[C@@H]3CCC4=CC(=O)CC[C@@H]4[C@H]3CC[C@@]21CC shows optomotor response of -1 or higher.
TRUE

Hi, just wondering whether CCOC(=O)N1CCC(=C2c3ccc(Cl)cc3CCc3cccnc32)CC1 shows optomotor response of -1 or higher.
FALSE

Hi, just wondering whether CC(C)c1nc(CN(C)C(=O)N[C@H](C(=O)N[C@@H](Cc2ccccc2)C[C@H](O)[C@H](Cc2ccccc2)NC(=O)OCc2cncs2)C(C)C)cs1 shows optomotor response of -1 or higher.
FALSE

Hi, just wondering whether CN[C@H]1CC[C@@H](c2ccc(Cl)c(Cl)c2)c2ccccc21 [Sertraline hydrochloride] shows optomotor response of -1 or higher.
FALSE

Hi, just wondering whether Clc1ccc2nsnc2c1NC1=NCCN1 [Tizanidine hydrochloride] shows optomotor response of -1 or higher.
TRUE

Hi, just wondering whether CN1CCN2c3ncccc3Cc3ccccc3C2C1 (stereo unspecified) shows optomotor response of -1 or higher.
FALSE

Hi, just wondering whether Cc1c(-c2ccc(O)cc2)n(Cc2ccc(OCCN3CCCCCC3)cc2)c2ccc(O)cc12 [Bazedoxifene acetate] shows optomotor response of -1 or higher.
TRUE

Hi, just wondering whether Cc1nc(-c2ccc(OCC(C)C)c(C#N)c2)sc1C(=O)O shows optomotor response of -1 or higher.
TRUE

Hi, just wondering whether CCCCCCCN(CC)CCCC(O)c1ccc(NS(C)(=O)=O)cc1 (stereo unspecified) [Ibutilide hemifumarate] shows optomotor response of -1 or higher.
TRUE

Hi, just wondering whether CC(C)[C@H]1CC[C@H](C(=O)N[C@H](Cc2ccccc2)C(=O)O)CC1 [Nateglinide] shows optomotor response of -1 or higher.
TRUE

Hi, just wondering whether CC(C)(C(=O)c1cccnc1)c1cccnc1 shows optomotor response of -1 or higher.
FALSE

Hi, just wondering whether O=C1CCc2cc(OCCCCc3nnnn3C3CCCCC3)ccc2N1 shows optomotor response of -1 or higher.
FALSE

====

Test system: Danio rerio larvae (5 dpf)
Experiment: habituation to 1-s acoustic pulses, difference vs DMSO (percentage points (treated minus DMSO)); higher = more of the behaviour than the DMSO vehicle control
Conditions: 10 µM; exposure time: 3 h pre-incubation + 3 h imaging
Counter-ions that a name gives are not always drawn.
measurementType: habituation to 1-s acoustic pulses
Answers are plain numbers.

Hello, I would appreciate it if you could give habituation to 1-s acoustic pulses for each entry below.
1. O=c1[nH]c(=O)n([C@H]2C[C@H](O)[C@@H](CO)O2)cc1C(F)(F)F
2. O=C(c1ccc(OCCN2CCCCC2)cc1)c1c(-c2ccc(O)cc2)sc2cc(O)ccc12 [Raloxifene hydrochloride]

4.64
1.64

Hello, I would appreciate it if you could give habituation to 1-s acoustic pulses for each entry below.
1. C/C(O)=C(\C#N)C(=O)Nc1ccc(C(F)(F)F)cc1 [Teriflunomide]
2. CN1CC2c3ccccc3Oc3ccc(Cl)cc3C2C1 (stereo not drawn) [Asenapine maleate]

1: -1.26; 2: -9.25

Hello, I would appreciate it if you could give habituation to 1-s acoustic pulses for each entry below.
1. COc1cc2nc(N3CCN(C(=O)c4ccco4)CC3)nc(N)c2cc1OC [Prazosin hydrochloride]
2. CCC(C)(C)C(=O)O[C@H]1C[C@@H](C)C=C2C=C[C@H](C)[C@H](CC[C@@H]3C[C@@H](O)CC(=O)O3)[C@H]21
3. Nc1cc(N2CCCCC2)nc(N)[n+]1[O-]

1: 0.4; 2: -1.13; 3: 5.2

Give habituation to 1-s acoustic pulses for Nc1ncn([C@@H]2O[C@H](CO)[C@@H](O)[C@H]2O)c(=O)n1 tested on Danio rerio larvae (5 dpf).
0.737

====

Would you mind telling me the reported excitability to 1-s acoustic pulses of each entry?
Test system: Danio rerio larvae (5 dpf)
Assay: excitability to 1-s acoustic pulses, difference vs DMSO (percentage points (treated minus DMSO)); higher = more of the behaviour than the DMSO vehicle control
Conditions: 10 µM; exposure time: 3 h pre-incubation + 3 h imaging

Look over these answered cases.
CCN(CC)CCNC(=O)c1c(C)[nH]c(/C=C2\C(=O)Nc3ccc(F)cc32)c1C [Sunitinib malate] :: 14.4
O=C(O)c1cc(/N=N/c2ccc(S(=O)(=O)Nc3ccccn3)cc2)ccc1O [Sulfasalazine] :: -0.736
CCCN(CCC)S(=O)(=O)c1ccc(C(=O)O)cc1 [Probenecid] :: 4.8

Hello, I would appreciate it if you could give excitability to 1-s acoustic pulses for each entry below.
1. COC(=O)C1=C(C)NC(C)=C(C(=O)OC(C)C)C1c1cccc2nonc12 (stereo not drawn) [Isradipine]
2. CNCc1ccc(-c2[nH]c3cc(F)cc4c3c2CCNC4=O)cc1 [Rucaparib camsylate]
3. CC(=O)O[C@]1(C(C)=O)CC[C@H]2[C@@H]3C=C(C)C4=CC(=O)CC[C@]4(C)[C@H]3CC[C@@]21C [Megestrol Acetate]
4. CC(c1cc2ccccc2s1)N(O)C(N)=O (stereo not drawn) [Zileuton]

1: 19.8; 2: 12.5; 3: 14.4; 4: 4.34

Provide measured excitability to 1-s acoustic pulses value, entry: OCCN(CCO)c1nc(N2CCCCC2)c2nc(N(CCO)CCO)nc(N3CCCCC3)c2n1 [Dipyridamole]
-3.05
